run description: Selectivity index, Ratio of IC50 for rat L6 cells to IC50 for Trypanosoma cruzi Tulahuen C2C4
Type: functional
Categorize each record by its Ratio IC50 using band 1 = under 30, band 2 = from 30 up to 40, band 3 = 40 and over

{"columns": ["smiles string", "assigned label"],
 "data": [
  ["CN(C)c1ccc2nc3ccc(N4CCCCC4)cc3[o+]c2c1.[Cl-]", "band 3"],
  ["CCCN(CCC)c1ccc2nc3ccc(N4CCCCC4)cc3[o+]c2c1.[Cl-]", "band 2"],
  ["CCCCCN(CCCCC)c1ccc2nc3ccc(N4CCCCC4)cc3[o+]c2c1.[Cl-]", "band 1"],
  ["CCCN(CCC)c1ccc2nc3ccc(N4CCCC4)cc3[o+]c2c1.[Cl-]", "band 1"],
  ["[Cl-].c1cc2nc3ccc(N4CCCC4)cc3[o+]c2cc1N1CCCC1", "band 2"],
  ["CCN(CC)c1ccc2nc3ccc(N4CCSCC4)cc3[o+]c2c1.[Cl-]", "band 3"],
  ["CCN(CC)c1ccc2nc3ccc(N(CC)CC)cc3[o+]c2c1.[Cl-]", "band 3"],
  ["CCCCN(CCCC)c1ccc2nc3ccc(N4CCCCC4)cc3[o+]c2c1.[Cl-]", "band 1"],
  ["CCN(CC)c1ccc2nc3ccc(N4CCOCC4)cc3[o+]c2c1.[Cl-]", "band 1"],
  ["CN(C)c1ccc2nc3ccc(N4CCSCC4)cc3[o+]c2c1.[Cl-]", "band 2"]
]}
